- Test system: Yap1 mRNA
- experimental.protocol: Antisense inhibition of human Yap1 in A-431 cells by cEt gapmers, single dose (Example 3, RTS36584)
- Format: cell-based
- study.conditions: Table 12; A-431 cells, 5,000 cells per well, free uptake, 2,000 nM modified oligonucleotide, approx. 48 hours; RTS36584; normalized to RIBOGREEN; Yap1 mRNA relative to untreated control cells
Strand notation (5' to 3'): a small letter for the sugar, then the base; units joined by * are phosphorothioate-linked, units joined directly phosphodiester-linked; [ ] holds rarer units or linkages, { } end groups; capitals alone tell only the bases. k = constrained ethyl (cEt); [5mC] = 5-methylcytosine; d = 2'-deoxy (DNA)
quantity: YAP1 (% UTC)

[[record]]
substance = "958749 (antisense k[5mC]*k[5mC]*kA*d[5mC]*dA*dA*dG*dG*dG*d[5mC]*dA*dG*dT*kA*k[5mC]*kG) [Compound 958749]"
target_or_system = "Yap1 mRNA"
quantity = "YAP1 (% UTC)"
reading_unit = "% UTC"
quantitative_result = 51

[[record]]
substance = "958794 (antisense kT*kT*k[5mC]*d[5mC]*dG*d[5mC]*dA*dT*dT*dG*d[5mC]*d[5mC]*dT*kA*kA*kG) [Compound 958794]"
target_or_system = "Yap1 mRNA"
quantity = "YAP1 (% UTC)"
reading_unit = "% UTC"
quantitative_result = 14

[[record]]
substance = "958614 (antisense kG*kT*k[5mC]*dT*dT*dG*dT*dT*d[5mC]*dT*dT*dA*dT*kG*kG*kT) [Compound 958614]"
target_or_system = "Yap1 mRNA"
quantity = "YAP1 (% UTC)"
reading_unit = "% UTC"
quantitative_result = 6


---

Measured YAP1 (% UT), listed per entry.
- Test system: Yap1 mRNA
- experimental.protocol: Antisense inhibition of human Yap1 in SNU-449 cells by modified oligonucleotides, single dose (Example 5, RTS36584)
- Format: cell-based
- study.conditions: Table 48; Yap1 mRNA level relative to untreated control; modified oligonucleotides targeting SEQ ID NO.: 1 and 2
Strand notation (5' to 3'): a small letter for the sugar, then the base; units joined by * are phosphorothioate-linked, units joined directly phosphodiester-linked; [ ] holds rarer units or linkages, { } end groups; capitals alone tell only the bases. e = 2'-O-(2-methoxyethyl) (MOE); k = constrained ethyl (cEt); [5mC] = 5-methylcytosine; d = 2'-deoxy (DNA)
quantity: YAP1 (% UT)

[[record]]
substance = "1198307 (kT*kT*kA*d[5mC]*dA*dT*dT*dA*dG*dG*dA*dA*k[5mC]*eA*kA*eG; antisense) [Compound 1198307]"
target_or_system = "Yap1 mRNA"
quantitative_result = 49

[[record]]
substance = "1198292 (kA*kT*kA*dT*dG*dG*dA*dA*dA*dT*dT*dG*kT*e[5mC]*kT*e[5mC]; antisense) [Compound 1198292]"
target_or_system = "Yap1 mRNA"
quantitative_result = 58

[[record]]
substance = "1198287 (kA*kA*kA*dT*dT*dG*dT*d[5mC]*dT*d[5mC]*dA*dT*kG*e[5mC]*k[5mC]*eT; antisense) [Compound 1198287]"
target_or_system = "Yap1 mRNA"
quantitative_result = 13

[[record]]
substance = "1198312 (kG*k[5mC]*kA*d[5mC]*dT*dT*dT*dT*dA*d[5mC]*dA*dT*kT*eA*kG*eG; antisense) [Compound 1198312]"
target_or_system = "Yap1 mRNA"
quantitative_result = 7

[[record]]
substance = "1198332 (kT*k[5mC]*kA*dG*dA*dT*dT*dT*dA*dG*dG*dA*kT*eG*k[5mC]*eA; antisense) [Compound 1198332]"
target_or_system = "Yap1 mRNA"
quantitative_result = 58

[[record]]
substance = "1197201 (antisense kT*k[5mC]*kT*dT*dA*dT*dA*dT*dG*dG*dT*dT*dT*kT*kG*kT) [Compound 1197201]"
target_or_system = "Yap1 mRNA"
quantitative_result = 46


---

- Tested on: Yap1 mRNA
- experimental.protocol: Antisense inhibition of human Yap1 in A-431 cells by cEt gapmers, single dose (Example 3, RTS36584)
- Assay type: cell-based
- study.conditions: Table 28; Yap1 mRNA as percent of untreated control; 3-10-3 cEt gapmers targeting SEQ ID NO.: 1, and 2
- Method: Modified oligonucleotides were designed to target a Yap1 nucleic acid and were tested for their effect on Yap1 mRNA level in vitro. The modified oligonucleotides were tested in a series of experiments that had similar culture conditions. […] After a treatment period of approximately 48 hours, RNA was isolated from the cells and Yap1 mRNA levels were measured by quantitative real-time RTPCR. […] Yap1 mRNA levels were normalized to total RNA content, as measured by RIBOGREEN®. […]
Strand notation (5' to 3'): a small letter for the sugar, then the base; units joined by * are phosphorothioate-linked, units joined directly phosphodiester-linked; [ ] holds rarer units or linkages, { } end groups; capitals alone tell only the bases. k = constrained ethyl (cEt); [5mC] = 5-methylcytosine; d = 2'-deoxy (DNA)
quantity: YAP1 (% UTC)

[[record]]
substance = "1075438 (antisense k[5mC]*kA*kT*dA*dT*dT*dA*dG*dA*dG*dT*dT*dG*kA*kG*kG) [compound 1075438]"
quantity = "YAP1 (% UTC)"
reading_unit = "% UTC"
quantitative_result = 22

[[record]]
substance = "1074318 (antisense kG*kG*kA*dG*dA*dA*dT*dT*dT*dG*d[5mC]*dT*dG*kT*kG*k[5mC]) [compound 1074318]"
quantity = "YAP1 (% UTC)"
reading_unit = "% UTC"
quantitative_result = 4

[[record]]
substance = "1075374 (antisense kG*kA*kA*dA*dA*dT*dA*d[5mC]*dT*d[5mC]*d[5mC]*dT*d[5mC]*k[5mC]*kT*kA) [compound 1075374]"
quantity = "YAP1 (% UTC)"
reading_unit = "% UTC"
quantitative_result = 27


---

- experimental.protocol: Tolerability in CD-1 mice, body and organ weights (Example 18)
- Assay type: in vivo
- study.conditions: male CD-1 mice, 50 mg/kg s.c. twice a week (total of 9 treatments), end of study (day 34)
Strand notation (5' to 3'): a small letter for the sugar, then the base; units joined by * are phosphorothioate-linked, units joined directly phosphodiester-linked; [ ] holds rarer units or linkages, { } end groups; capitals alone tell only the bases. k = constrained ethyl (cEt); [5mC] = 5-methylcytosine; d = 2'-deoxy (DNA)
# Liver weight annotations
quantity: Liver weight

[[record]]
substance = "1074755 (k[5mC]*kA*k[5mC]*dT*dT*dT*dT*dA*d[5mC]*dA*dT*dT*dA*kG*kG*kA; antisense) [compound 1074755]"
quantity = "Liver weight"
result = "2.27 g"

[[record]]
substance = "1076481 (k[5mC]*kT*kA*dA*dG*dT*dA*dA*dG*dG*dT*dT*dT*k[5mC]*k[5mC]*k[5mC]) [compound 1076481]"
quantity = "Liver weight"
result = "2.06 g"

[[record]]
substance = "1076453 (GTAATATTGCAATCTG; 3-10-3 cEt gapmer, further chemistry not given here) [compound 1076453]"
quantity = "Liver weight"
result = "1.91 g"

[[record]]
substance = "958499 (ATTAGAGTATGTGGCA; 3-10-3 cEt gapmer, further chemistry not given here) [compound 958499]"
quantity = "Liver weight"
result = "2.20 g"


---

YAP1 (% UTC) values for the substances below.
- Test system: Yap1 mRNA
- experimental.protocol: Antisense inhibition of human Yap1 in SNU-449 cells by modified oligonucleotides, single dose (Example 5, RTS36584)
- Type: cell-based
- study.conditions: Table 44 experiment; SNU-449 cells, 10,000 cells per well, free uptake, 2,000 nM, approximately 48 hours; RTS36584; Yap1 mRNA normalized to RIBOGREEN, relative to untreated control cells
Strand notation (5' to 3'): a small letter for the sugar, then the base; units joined by * are phosphorothioate-linked, units joined directly phosphodiester-linked; [ ] holds rarer units or linkages, { } end groups; capitals alone tell only the bases. e = 2'-O-(2-methoxyethyl) (MOE); k = constrained ethyl (cEt); [5mC] = 5-methylcytosine; d = 2'-deoxy (DNA)
quantity: YAP1 (% UTC)

[[record]]
substance = "1198538 (kA*k[5mC]*dT*dA*dA*dG*dT*dA*dA*dG*dG*eT*kT*eT*k[5mC]*e[5mC]; antisense) [Compound 1198538]"
quantitative_result = 29

[[record]]
substance = "1198515 (kA*kT*dT*dG*d[5mC]*dA*dA*dT*d[5mC]*dT*dG*eT*k[5mC]*eT*kG*eA; antisense) [Compound 1198515]"
quantitative_result = 44

[[record]]
substance = "1198522 (kT*kA*dT*dG*dT*dA*dA*dT*dA*dT*dT*eG*k[5mC]*eA*kA*eT; antisense) [Compound 1198522]"
quantitative_result = 37

[[record]]
substance = "1198509 (kT*k[5mC]*dT*dT*dA*dT*dA*dT*dG*dG*dT*eT*kT*eT*kG*eT; antisense) [Compound 1198509]"
quantitative_result = 20

[[record]]
substance = "1198477 (antisense kG*kA*dG*dG*dT*dA*dT*dA*dA*d[5mC]*dT*eG*kG*eG*k[5mC]*eA) [Compound 1198477]"
quantitative_result = 47

[[record]]
substance = "1198495 (antisense kA*kG*dT*dG*d[5mC]*dT*dT*dT*dG*dG*dA*eA*kG*eA*kT*e[5mC]) [Compound 1198495]"
quantitative_result = 22

[[record]]
substance = "1095621 (antisense kT*kG*dA*dG*dG*dT*dA*dT*dA*dA*d[5mC]*eT*kG*eG*kG*e[5mC]) [Compound 1095621]"
quantitative_result = 22

[[record]]
substance = "1198497 (antisense kA*kG*dG*dA*dT*dG*d[5mC]*dA*dT*dG*dG*eT*kT*eT*kT*eT) [Compound 1198497]"
quantitative_result = 22

[[record]]
substance = "1198540 (antisense kA*kG*dA*d[5mC]*dT*dA*dA*dG*dT*dA*dA*eG*kG*eT*kT*eT) [Compound 1198540]"
quantitative_result = 51

[[record]]
substance = "1198523 (kT*kT*dT*dA*dT*dG*dT*dA*dA*dT*dA*eT*kT*eG*k[5mC]*eA; antisense) [Compound 1198523]"
quantitative_result = 93

[[record]]
substance = "1198541 (antisense kT*kT*dA*dG*dA*d[5mC]*dT*dA*dA*dG*dT*eA*kA*eG*kG*eT) [Compound 1198541]"
quantitative_result = 34

[[record]]
substance = "1198478 (antisense kA*kA*d[5mC]*dA*d[5mC]*dT*dG*dA*dG*dG*dT*eA*kT*eA*kA*e[5mC]) [Compound 1198478]"
quantitative_result = 60

[[record]]
substance = "715487 (antisense kA*kT*kT*dA*d[5mC]*dT*dT*d[5mC]*dA*dT*dA*dG*d[5mC]*kT*kT*kA) [Compound 715487]"
quantitative_result = 18

